Biological target: CDK7/Cyclin H/MNAT1 (Homo sapiens, UniProt P50613)
Sequence (P51946 whole entry): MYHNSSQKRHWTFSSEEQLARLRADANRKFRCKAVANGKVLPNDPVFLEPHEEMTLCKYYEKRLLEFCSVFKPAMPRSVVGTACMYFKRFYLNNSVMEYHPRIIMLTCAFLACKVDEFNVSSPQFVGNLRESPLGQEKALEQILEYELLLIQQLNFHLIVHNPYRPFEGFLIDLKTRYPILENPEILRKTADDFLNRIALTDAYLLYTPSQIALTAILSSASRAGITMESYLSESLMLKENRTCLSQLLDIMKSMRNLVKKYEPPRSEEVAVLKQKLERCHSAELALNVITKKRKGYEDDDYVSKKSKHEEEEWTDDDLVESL
Sequence (P50613 whole entry): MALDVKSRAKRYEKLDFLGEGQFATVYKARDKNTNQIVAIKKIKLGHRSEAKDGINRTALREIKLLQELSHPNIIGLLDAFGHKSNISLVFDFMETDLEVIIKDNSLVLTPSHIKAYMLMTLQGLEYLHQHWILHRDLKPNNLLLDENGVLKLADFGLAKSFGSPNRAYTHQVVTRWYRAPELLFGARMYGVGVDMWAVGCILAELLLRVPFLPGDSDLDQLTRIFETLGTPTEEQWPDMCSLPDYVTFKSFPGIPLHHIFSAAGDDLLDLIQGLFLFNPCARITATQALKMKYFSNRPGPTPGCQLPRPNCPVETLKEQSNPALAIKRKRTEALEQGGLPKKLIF
Sequence (P51948 whole entry, further chain): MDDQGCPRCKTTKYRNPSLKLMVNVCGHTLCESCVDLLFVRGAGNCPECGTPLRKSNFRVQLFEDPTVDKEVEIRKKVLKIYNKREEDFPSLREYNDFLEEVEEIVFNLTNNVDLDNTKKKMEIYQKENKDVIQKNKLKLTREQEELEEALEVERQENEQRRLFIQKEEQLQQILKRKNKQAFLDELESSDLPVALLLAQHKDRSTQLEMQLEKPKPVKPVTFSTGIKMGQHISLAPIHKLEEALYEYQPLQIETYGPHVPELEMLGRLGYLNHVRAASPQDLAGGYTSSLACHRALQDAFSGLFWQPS
Test: Inhibition of Kinase Activity: Compounds of the invention were assayed for activity against a variety of different kinases.
endpoint.name: IC50

> print(dat)
                                   molecule                               measured.on  endpoint.name  observed.result
1  C=CC(=O)Nc1ccc(C(=O)Nc2nn(C)c3c2CN(C(=O)NC(C)CN(C)C)C3(C)C)cc1 (stereo unspecified)  CDK7/Cyclin H/MNAT1 (Homo sapiens, UniProt P50613)           IC50         > 500 nM

The values you see were collected from ChEMBL document CHEMBL5728191.
